# System: M14
# method: NCI tumour cell line growth inhibition, 48 h
Activity calls are given as the source filed them. Rule as the data show it: active = GI50 up to about 1.1 µM and inactive = higher.
recorded_metric: GI50

# annotated cases, reported GI50 shown
compound | system | GI50
COc1cccc(NC(=O)CC(=O)NN2C(=O)/C(=C/c3ccc(N(CCC#N)CCC#N)cc3)N=C2c2cc([N+](=O)[O-])ccc2Cl)c1 | M14 | > 100 µM (inactive)
O=C(O)[C@@H]1CCC(=O)N1C(c1ccc2c(c1)OCO2)c1ccc2c(c1)OCO2 | M14 | > 100 µM (inactive)

Would you mind listing GI50 for each of the following compounds?
1. C/C=C\C(CC(=O)NCCc1c[nH]c2ccccc12)CC(=O)OC (stereo not given)
2. COc1ccc(C)cc1Nc1nnc(-c2ccccc2N)s1
3. O=Cc1ccc2c(c1)CC1(Cc3ccccc3C1)C2
4. COC(=O)C(=O)C(C(=O)C(=O)Nc1ccccc1C(C)=O)c1nc2ccc(C(=O)c3ccccc3)cc2nc1O (stereo not given)

OUTPUT:
["> 100 µM (inactive)", "40.2 µM (inactive)", "13.1 µM (inactive)", "> 100 µM (inactive)"]

Would you mind listing GI50 for each of the following compounds?
1. NC(=O)C(=O)n1ncc(Cl)c(Cl)c1=O
2. O=C1CSC(/C(=C/c2ccccc2)c2nc3ccccc3[nH]2)=N1
3. CCCC(=O)OCC1OC(n2cc(F)c(=O)[nH]c2=O)C(F)C1OC(=O)CCC (stereo not given)
4. COC(=O)C1=C(C)C(=O)[C@H]2C(C(=O)OC)CCCC[C@@H]12 (stereo not given in full)

OUTPUT:
1: 28.8 µM (inactive); 2: 57 µM (inactive); 3: 36.3 µM (inactive); 4: > 100 µM (inactive)

---

# Tested on: CAKI-1
# method: NCI tumour cell line growth inhibition, 48 h
Activity calls are given as the source filed them. Cut-off read from the data, not from the text of the source: active = GI50 up to about 1.1 µM and inactive = higher.
Please provide measured GI50 for the entries that follow.

molecule | val
Cc1cc(C)c2nccc(NCCCN(C)C)c2c1[N+](=O)[O-] | 32.2 µM (inactive)
O=c1oc2ccccc2cc1-c1cn2c(n1)sc1ccccc12 | > 100 µM (inactive)
Cn1cc(C=C(C#N)C#N)c(=O)n(C)c1=O | > 100 µM (inactive)
C=CCN(c1cc(OC)c(NC(C)=O)cc1[N+](=O)[O-])S(C)(=O)=O | > 100 µM (inactive)
O=C1Nc2ccccc2/C1=N/Nc1nc(-c2ccc([N+](=O)[O-])cc2)cs1 | 17.9 µM (inactive)

The recorded GI50 for entry COc1nc2c(c(=O)[nH]1)N=C(c1ccc([N+](=O)[O-])cc1)CC(c1ccccc1)N2 (stereo unspecified) equals > 100 µM (inactive)

---

# Tested on: M14
# method: NCI tumour cell line growth inhibition, 48 h
Active and inactive are the calls of the source. Cut-off read from the data, not from the text of the source: active = GI50 up to about 1.1 µM and inactive = higher.
Reply using exactly one outcome from active, inactive

Answered examples (4):
compound | qualitative_label
C=C(C)[C@@H]1C[C@H]2O[C@](O)(C(=C)CC(=O)/C=C(/C)C[C@@H]3OC(=O)[C@]24O[C@@H]34)[C@H]1O | inactive
Clc1ncnc(Cl)c1Cl | inactive
CN(C)c1ncc(-c2c[nH]c3ccccc23)nc1-c1c[nH]c2ccccc12 | inactive
CC(C)=C[C@@H]1C[C@H](C)c2c(O)cc(C)c3c2C1=C(C)C(=O)C3=O [ELISABATIN A] | inactive

INPUT: Which outcome was assigned to "Cc1cc2c(C(C)C)c(O)c(O)c(/C=N\CCO)c2c(O)c1-c1c(C)cc2c(C(C)C)c(O)c(O)c(/C=N/CCO)c2c1O" in this test?
OUTPUT: inactive

INPUT: Which outcome was assigned to "CCCNc1[nH]c(C(C)=O)c(N)c1C(=S)Nc1ccccc1" in this test?
OUTPUT: inactive

INPUT: Which outcome was assigned to "CC(=O)Oc1ccc2oc(=O)cc(C)c2c1" in this test?
OUTPUT: inactive

INPUT: Which outcome was assigned to "COC(=O)C1=C(OC)[C@H]2C#C/C=C\C#C[C@@H]3Nc4c(cc(O)c5c4C(=O)c4ccccc4C5=O)[C@]24O[C@@]34[C@H]1C" in this test?
OUTPUT: active

INPUT: Which outcome was assigned to "COc1cccc(/C=C/c2cnc3ccccc3n2)c1OC" in this test?
OUTPUT: inactive

INPUT: Which outcome was assigned to "CC1(C)CSCC(C)(C)C(=N/N)/C1=N\N" in this test?
OUTPUT: inactive

INPUT: Which outcome was assigned to "ClCCc1ccccc1CC1=NCCc2ccccc21" in this test?
OUTPUT: inactive

INPUT: Which outcome was assigned to c1ccc(C2=NNC3c4ccccc4-c4ccccc4N3C2)cc1 (stereo not given) in this test?
OUTPUT: inactive

INPUT: Which outcome was assigned to "Cc1nc(C)c(N2CCN([N+](=O)[O-])CC2)c(O)n1" in this test?
OUTPUT: inactive

INPUT: Which outcome was assigned to "CC(C)(C)SC1=CCC[C@@H](P(=O)(c2ccccc2)c2ccccc2)[C@@H]2CCC[C@@H]12" in this test?
OUTPUT: inactive

INPUT: Which outcome was assigned to "C=C1C2=C(CCCC2)C(=O)OC12CCCCC2" in this test?
OUTPUT: inactive

INPUT: Which outcome was assigned to "Cc1ccc(SSCCCCCS(=O)O)cc1" in this test?
OUTPUT: inactive

INPUT: Which outcome was assigned to CO[C@H](C(=O)[C@@H](O)[C@@H](C)O)[C@@H]1Cc2cc3cc(OC4CC(OC5CC(O)C(O)C(C)O5)C(O)C(C)O4)c(C)c(O)c3c(O)c2C(=O)[C@H]1OC1CC(OC2CC(OC3CC(C)(O)C(O)C(C)O3)C(O)C(C)O2)C(O)C(C)O1 (stereo not given in full) in this test?
OUTPUT: active

---

Please provide measured GI50 for the entries that follow.
# Tested on: SNB-75
# method: NCI tumour cell line growth inhibition, 48 h
Active and inactive are the calls of the source. Rule as the data show it: active = GI50 up to about 1.1 µM and inactive = higher.

# annotated cases, reported GI50 shown
compound | system | GI50
COC(=O)[C@]1(c2cc3ccccc3[nH]2)CC2CNC1C1OC(C)(C)OC21 (stereo not given in full) | SNB-75 | > 100 µM (inactive)
COc1cc2nn(-c3ccccc3)nc2c2nonc12 | SNB-75 | > 100 µM (inactive)
CC(C)CC(O)P(=O)(O)O.NC1CCCCC1 (stereo not given) | SNB-75 | > 100 µM (inactive)

Would you mind listing GI50 for each of the following compounds?
1. C#C/C=C\CCCCCCCCCCCCCC/C=C\CCCCC#CC(O)C#CCCCC/C=C\CCCCCC/C=C/C(O)C#C (stereo not given)
2. N#CC(C#N)=C1SCC(=O)CS1
3. Clc1ncnc(Cl)c1Cl
4. COC(=O)C(=O)C(C(=O)C(=O)Nc1ccccc1C(C)=O)c1nc2ccc(C(=O)c3ccccc3)cc2nc1O (stereo not given)

OUTPUT:
["42.7 µM (inactive)", "89.1 µM (inactive)", "> 100 µM (inactive)", "32.7 µM (inactive)"]

Would you mind listing GI50 for each of the following compounds?
1. c1ccc(-c2cnc(-c3ccc(-c4ncc(-c5ccccc5)o4)cc3)o2)cc1
2. O=C1Nc2ccccc2/C1=N/Nc1nc(-c2ccc([N+](=O)[O-])cc2)cs1
3. Cc1ccc(C)n1-n1c(Cc2ccccc2)n[nH]c1=O

OUTPUT:
56.5 µM (inactive)
7.45 µM (inactive)
22.2 µM (inactive)

Would you mind listing GI50 for each of the following compounds?
1. O=C1c2cccnc2S(=O)(=O)N1c1ccc(Br)cc1
2. Cc1c2ccccc2c(C2C3C(=O)N(c4ccc(Br)cc4)C(=O)C3ON2C(C(N)=O)c2ccccc2)c2ccccc12 (stereo not given)
3. COc1cc(C2C(C(=O)Nc3ccccc3)=C(C)NC(C)=C2C(=O)Nc2ccccc2)ccc1O
4. COc1ccc(-c2cc(-c3ccccc3)c3c(n2)-c2ccccc2NC(=O)C3)cc1

OUTPUT:
1. 95.1 µM (inactive)
2. 5.02 µM (inactive)
3. 13.6 µM (inactive)
4. 1.19 µM (inactive)

The recorded GI50 for entry "Cc1cccc(C)c1CO" equals > 100 µM (inactive)

---

# System: CCRF-CEM
# method: NCI tumour cell line growth inhibition, 48 h
Calls of active or inactive are those of the source. Rule as the data show it: active = GI50 up to about 1.1 µM and inactive = higher.
Reply using exactly one outcome from active, inactive

Answered examples (3):
compound | system | qualitative_label
O=[N+]([O-])c1ccc2c(c1)nc(Cc1ccc(Cl)cc1)n2C[C@@H]1CCCN2CCCCC12 (stereo partly specified) | CCRF-CEM | inactive
O=C1c2cccnc2S(=O)(=O)N1c1ccc(Br)cc1 | CCRF-CEM | inactive
C=CCc1cc(-c2cc(CC=C)c(O)c(CNC)c2)cc(CNC)c1O | CCRF-CEM | inactive

INPUT: Which outcome was assigned to "S=c1[nH]n2c(CCCCCCCCc3nnc4sc(=S)[nH]n34)nnc2s1" in this test?
OUTPUT: inactive

INPUT: Which outcome was assigned to "CCc1c2c([nH]c(=S)c1C#N)CCC2" in this test?
OUTPUT: inactive

The measurements presented in this section are drawn from ChEMBL document CHEMBL1201862.
